- System: UACC-62 melanoma
- PROTOCOL TEXT: NCI tumour cell line growth inhibition, 48 h

[
  {
    "COMPOUND": "C=CCn1c(=S)sc2c(C(=O)OCC)c3c(C)cc(C)cn3c2c1=O",
    "TGI": "> 100 µM"
  },
  {
    "COMPOUND": "COC(C/C(=C/CO[Si](C(C)C)(C(C)C)C(C)C)C(=O)N(COCC[Si](C)(C)C)c1ccccc1I)OC",
    "TGI": "50.7 µM"
  },
  {
    "COMPOUND": "Cc1cn(C2CCC(CO)(CF)O2)c(=O)[nH]c1=O (stereo not given)",
    "TGI": "> 100 µM"
  },
  {
    "COMPOUND": "O=C(/C=C(\\O)C(=O)O)/C=C(\\O)c1ccccc1",
    "TGI": "> 100 µM"
  },
  {
    "COMPOUND": "O=C(O)C[C@H](O)C[C@H](O)/C=C/c1c(C2CC2)nc2ccccc2c1-c1ccc(F)cc1",
    "TGI": "> 100 µM"
  },
  {
    "COMPOUND": "Cc1cc2c(c(C(N)=O)c1C)-c1cccc(F)c1C2=O",
    "TGI": "> 100 µM"
  },
  {
    "COMPOUND": "O=S(=O)(O)O",
    "TGI": "1940 µM"
  },
  {
    "COMPOUND": "Cc1ccc(S(=O)(=O)N/N=C(\\c2nc3ccc(Cl)cc3[nH]c2=O)C(O)c2ccco2)cc1 (stereo not given)",
    "TGI": "> 100 µM"
  },
  {
    "COMPOUND": "C#C[C@]1(O)CC[C@H]2[C@@H]3CC=C4c5sc(Nc6cc(F)ccc6F)nc5CC[C@]4(C)[C@H]3CC[C@@]21C",
    "TGI": "3.75 µM"
  },
  {
    "COMPOUND": "O=C(O)CCC(=O)OCN1C(=O)C2C3C=CC(C2C1=O)C1C2C(=O)N(COC(=O)CCC(=O)O)C(=O)C2C31 (stereo not given)",
    "TGI": "> 100 µM"
  }
]

###

- Tested on: EKVX NSCLC
- PROTOCOL TEXT: NCI tumour cell line growth inhibition, 48 h; in the data active means GI50 below about 0.43 µM; inactive means the rest
Outcomes: true (1) (active), false (0) (inactive)

[
  {
    "COMPOUND": "COc1ccc2c(c1)[n+](=O)c(C(=O)c1cccs1)c(C(F)(F)F)n2[O-]",
    "ASSIGNED LABEL": "false (0)"
  },
  {
    "COMPOUND": "CCCCCCCCCCCC1=NC(C)(C)CN1C(C)(C)CO",
    "ASSIGNED LABEL": "false (0)"
  },
  {
    "COMPOUND": "COc1ccccc1/C=C1\\COc2ccc(-c3ccccc3)cc2C1=O",
    "ASSIGNED LABEL": "false (0)"
  },
  {
    "COMPOUND": "COc1ccc2c(c1)/C(=C\\c1ccncc1)C(=O)N2",
    "ASSIGNED LABEL": "false (0)"
  },
  {
    "COMPOUND": "Cc1c(CNc2ccc(C(=O)NC(CCCNC(=O)c3ccccc3C(=O)O)C(=O)O)cc2)cnc2nc(N)nc(N)c12 (stereo unspecified)",
    "ASSIGNED LABEL": "true (1)"
  },
  {
    "COMPOUND": "Cc1ccc(/C=C/c2c(C(=O)/C=C/c3ccccc3)c(C)nc3ccccc23)cc1",
    "ASSIGNED LABEL": "false (0)"
  }
]

###

- System: ACHN renal
- PROTOCOL TEXT: NCI tumour cell line growth inhibition, 48 h
Here the recorded TGI is given for each entry.

[
  {
    "COMPOUND": "C=C(C(=O)O[C@H]1C/C(C)=C/CC/C(CO)=C/[C@H]2C(=O)OC(=C)[C@H]12)C(O)CO (stereo partly specified)",
    "MEASURED TARGET": "ACHN renal",
    "TGI": "24.8 µM"
  },
  {
    "COMPOUND": "CCC[CH2][Sn]([CH2]CCC)([O]C(=O)c1cc(OC)c(OC)cc1OC)[O][Sn]([CH2]CCC)([CH2]CCC)[O]C(=O)c1cc(OC)c(OC)cc1OC",
    "MEASURED TARGET": "ACHN renal",
    "TGI": "1.17 µM"
  },
  {
    "COMPOUND": "CN1/C(=C/C=C/C=C/C=C2C(=O)c3ccccc3C2=O)C(C)(C)c2ccccc21",
    "MEASURED TARGET": "ACHN renal",
    "TGI": "> 100 µM"
  },
  {
    "COMPOUND": "Fc1ccc(-c2ncn(C3CCNCC3)c2-c2ccnc(Oc3ccc4c(c3)OCO4)n2)cc1",
    "MEASURED TARGET": "ACHN renal",
    "TGI": "> 25 µM"
  },
  {
    "COMPOUND": "CC1=CC2C(C(O)CC3(C)C2CC(C)C32OCOC23COCO3)C2(C)C/C(=C/O)C(=O)C=C12 (stereo unspecified)",
    "MEASURED TARGET": "ACHN renal",
    "TGI": "3.45 µM"
  },
  {
    "COMPOUND": "NCCCN(CCCCN(CCCN)C(=O)OCc1ccccc1)C(=O)OCc1ccccc1",
    "MEASURED TARGET": "ACHN renal",
    "TGI": "> 100 µM"
  },
  {
    "COMPOUND": "COc1ccc([C@H](CC(=O)O)N2CCN(CCCc3ccc4c(n3)NCCC4)C2=O)cn1",
    "MEASURED TARGET": "ACHN renal",
    "TGI": "> 100 µM"
  },
  {
    "COMPOUND": "C#CC(O)(c1nc2ccccc2s1)c1nc2ccccc2s1",
    "MEASURED TARGET": "ACHN renal",
    "TGI": "83.2 µM"
  },
  {
    "COMPOUND": "CN(C)Cc1ccc(-c2cc3onc(-c4ccccc4)c3c(=O)n2C)cc1",
    "MEASURED TARGET": "ACHN renal",
    "TGI": "> 100 µM"
  },
  {
    "COMPOUND": "COc1cc(/C=C/c2ccc(C)cc2)cc(OC)c1OC",
    "MEASURED TARGET": "ACHN renal",
    "TGI": "35.5 µM"
  },
  {
    "COMPOUND": "N#Cc1nc(-c2ccc(F)cc2)oc1S(=O)(=O)N1CCCCC1",
    "MEASURED TARGET": "ACHN renal",
    "TGI": "3.15 µM"
  },
  {
    "COMPOUND": "O=c1[nH]nc(-c2ccccc2)n1/N=C/c1ccc([N+](=O)[O-])o1",
    "MEASURED TARGET": "ACHN renal",
    "TGI": "14.4 µM"
  },
  {
    "COMPOUND": "CCO/C=C1\\N=C(c2ccc(Cl)c(Cl)c2)OC1=O",
    "MEASURED TARGET": "ACHN renal",
    "TGI": "> 100 µM"
  },
  {
    "COMPOUND": "O=c1c2c([nH]c3nccn13)CCC2",
    "MEASURED TARGET": "ACHN renal",
    "TGI": "> 10 µM"
  },
  {
    "COMPOUND": "C[C@H]1[C@H](C)N1CC(O)Cn1ccnc1[N+](=O)[O-] (stereo partly specified)",
    "MEASURED TARGET": "ACHN renal",
    "TGI": "> 100 µM"
  },
  {
    "COMPOUND": "COc1ccccc1OCC(COC(=O)Nc1ccccc1)OC(=O)Nc1ccccc1 (stereo unspecified)",
    "MEASURED TARGET": "ACHN renal",
    "TGI": "> 100 µM"
  },
  {
    "COMPOUND": "N#C/C(=C1\\SCC(=O)N1c1ccccc1)c1nc2ccccc2[nH]1",
    "MEASURED TARGET": "ACHN renal",
    "TGI": "> 100 µM"
  },
  {
    "COMPOUND": "CSC(SC)=C(C#N)C(=O)Nc1cccc(Cl)c1",
    "MEASURED TARGET": "ACHN renal",
    "TGI": "> 100 µM"
  },
  {
    "COMPOUND": "NC(=N\\N=C/c1ccc(O)cc1)/C(N)=N\\N=C/c1ccc(O)cc1",
    "MEASURED TARGET": "ACHN renal",
    "TGI": "> 100 µM"
  },
  {
    "COMPOUND": "O=P1(N2CCOCC2)OCCO1",
    "MEASURED TARGET": "ACHN renal",
    "TGI": "> 100 µM"
  },
  {
    "COMPOUND": "Cc1cc(C)c2c(c1)CC1(Cc3cc(C)c(C)cc3C1=O)C2=O (stereo unspecified)",
    "MEASURED TARGET": "ACHN renal",
    "TGI": "> 100 µM"
  }
]
